test system: MT2; assay: Cytotoxicity against human MT2 cells assessed as reduction in cell viability incubated for 4 days by XTT assay; format: cell-based; details: mt2, 96 h, time 4 day
Could you please mark True for values of CC50 below 20 µM and False for values at or above it?

Ask | Report whether reported CC50 is lower than 20 µM (strictly) for "CC(C)(O)c1csc([C@H](CN)NC(=O)c2ccc(-c3cc(F)c(Cl)c(F)c3)[nH]2)n1"
Reply | True

###

test system: TZM; experiment: Cytotoxicity against human TZM-bl cells assessed as reduction in cell viability incubated for 3 days by XTT assay; assay type: cell-based; settings: tzm, 72 h, time 3 day
compounds and their reported CC50
# output: bare number, implied unit µM

[[record]]
record_smiles = "NC[C@@H](NC(=O)c1ccc(-c2cc(F)c(Cl)c(F)c2)[nH]1)c1nc(CO)c(CO)s1"
attribute_measured = "CC50"
u = "µM"
result_value = 53


Ask | Give reported CC50 value for "NC[C@@H](NC(=O)c1ccc(-c2cc(F)c(Cl)c(F)c2)[nH]1)c1nc(CO)cs1"
Reply | 27.7

Ask | Give reported CC50 value for "NC[C@@H](NC(=O)c1ccc(-c2ccc(C(F)(F)F)c(F)c2)[nH]1)c1ncc(CO)s1"
Reply | 18.5

Ask | Give reported CC50 value for "NC[C@H](NC(=O)c1ccc(-c2ccc(C(F)(F)F)cc2)[nH]1)c1ncc(CO)s1"
Reply | 35.6

Ask | Give reported CC50 value for "CC(C)(O)c1csc([C@H](CN)NC(=O)c2ccc(-c3cc(F)c(Cl)c(F)c3)[nH]2)n1"
Reply | 28.4

Ask | Give reported CC50 value for "Cc1c(F)cc(-c2ccc(C(=O)N[C@@H](CN)c3ncc(CO)s3)[nH]2)cc1F"
Reply | 33.2
